Active and inactive are the calls of the source.
Reported Kd, Hepatocyte growth factor receptor (Homo sapiens, UniProt P08581).

> print(dat)
                                   molecule  reported.endpoint  experimental.value
1  COc1cc2nccc(Oc3ccc(NC(=O)NC4CC4)c(Cl)c3)c2cc1C(N)=O                 Kd  > 30 µM (inactive)

List the reported Kd of each molecule below.
1. CN1N=C(N)c2cn([C@@H]3O[C@H](COP(=O)(O)O)[C@@H](O)[C@H]3O)c3ncnc1c23 [TRICIRIBINE PHOSPHATE]
2. C[C@@H]1CN(Cc2ccc(F)cc2)[C@@H](C)CN1C(=O)c1cc2c(C(=O)C(=O)N(C)C)cn(C)c2cc1Cl

OUT:
> 30 µM (inactive)
> 30 µM (inactive)

IN: Can you look up the measured Kd of CCCS(=O)(=O)Nc1ccc(F)c(C(=O)c2c[nH]c3ncc(-c4ccc(Cl)cc4)cc23)c1F for me?
OUT: > 30 µM (inactive)
